Exercise: state measured protein stability index for each of the variants provided.
B1: KLHL14 (parent)
chain: NETGYLSSVECYNLETNEWRYVSS

- Variants of: B1
- experiment summary: protein stability index of a GFP-peptide fusion (GPS, HEK-293T) (PSI 1-6); higher = more stable;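 further: lentivirally expressed fusions sorted by FACS into six bins by GFP to DsRed ratio, PSI derived from sequencing read proportions per bin multiplied by bin number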
- cond: c terminus: a fixed tail appended
Lab note: record the figure alone, no unit after it.

protein stability index in this record for NRTGYLSSVECYNLETNEWRYVSS [E2R] : 2.49

protein stability index in this record for FETGYLSSVECYNLETNEWRYVSS [N1F] : 2.63

protein stability index in this record for NETGYLSSVECYPLETNEWRYVSS [N13P] : 3.48

protein stability index in this record for NETSYLSSVECYNLETNEWRYVSS [G4S] : 3.22

protein stability index in this record for NETGYLSSVECYNLETNEWRYVRS [S23R] : 2.87

protein stability index in this record for NEFGYLSSVECYNLETNEWRYVSS [T3F] : 2.45

protein stability index in this record for NETGYLSSVECYNLEYNEWRYVSS [T16Y] : 2.8

protein stability index in this record for NEQGYLSSVECYNLETNEWRYVSS [T3Q] : 3.4

protein stability index in this record for NETGYLSSVECYNLETNEIRYVSS [W19I] : 4.75

protein stability index in this record for NETGYLSSVECYHLETNEWRYVSS [N13H] : 2.73

protein stability index in this record for NETGYSSSVECYNLETNEWRYVSS [L6S] : 3.63

protein stability index in this record for NETGYLSSVERYNLETNEWRYVSS [C11R] : 3.73

protein stability index in this record for NETGYKSSVECYNLETNEWRYVSS [L6K] : 3.89

protein stability index in this record for NETGYLSSVECYNLETNEWRYVSI [S24I] : 3.02

protein stability index in this record for NETGYLSSTECYNLETNEWRYVSS [V9T] : 3.4

protein stability index in this record for NETGPLSSVECYNLETNEWRYVSS [Y5P] : 4

protein stability index in this record for NETGYDSSVECYNLETNEWRYVSS [L6D] : 3.78

protein stability index in this record for QETGYLSSVECYNLETNEWRYVSS [N1Q] : 3.31

protein stability index in this record for NETGLLSSVECYNLETNEWRYVSS [Y5L] : 3.46

protein stability index in this record for NETGYLSSQECYNLETNEWRYVSS [V9Q] : 3.85

protein stability index in this record for NETGTLSSVECYNLETNEWRYVSS [Y5T] : 4.72

protein stability index in this record for NETGYLSSVEMYNLETNEWRYVSS [C11M] : 3.23
